Test system: rice
Test Protocol: Test B pre-/postemergence herbicide test
Assay type: in vivo, Oryza sativa
Test Settings: 500 g ai/ha; visual rating, 0 = no effect, 100 = complete control; preemergence
Readout Kind: Plant response rating, Rice

Worked examples, 3 molecules total:
CCn1nc(C(C)(C)C)cc1C(=O)Nc1cc(C(=O)N(C)OC)ccc1F [Compound 244] | 80
CCSCNC(=O)c1cccc(NC(=O)c2cc(C(C)(C)C)nn2CC)c1 [Compound 329] | 0
CCNC(=O)c1cc(NC(=O)c2cc(C(C)(C)C)nn2CC)ccn1 [Compound 257] | 0

Working through the 3 molecules below one at a time, give Plant response rating, Rice for each.
1. CCc1nn(C(C)(C)C)cc1C(=O)Nc1cc(C(=O)N(C)CC)ccc1F [Compound 224]
2. C=CCN(CC=C)C(=O)c1cncc(NC(=O)c2cc(C(C)(C)C)nn2CC)c1 [Compound 262]
3. CCc1nc(C(C)(C)C)sc1C(=O)Nc1cccc(C(=O)N(C)CC)c1 [Compound 229]

Response line:
1. 80
2. 0
3. 70
